# Tested on: CPK1 (P.falciparum)
# experiment_description: KINOMEscan competition binding
# recorded_conditions: compound 1.0 µM
attribute_measured: kinase still bound, per cent of control (%)

1. CN(C)C/C=C/C(=O)Nc1cccc(C(=O)Nc2ccc(Nc3nccc(/C(C#N)=C4\Nc5ccccc5S4)n3)cc2)c1
96
2. CN(C)C/C=C/C(=O)Nc1cccc(C(=O)Nc2ccc(Nc3nccc(-c4c(-c5ccccc5)nn5ccccc45)n3)cc2)c1
0.6
3. Cc1cc(NC(=O)c2cccc(NC(=O)/C=C/CN(C)C)c2)ccc1Nc1nccc(-c2cccnc2)n1
100
4. CN(C)C/C=C/C(=O)Nc1cccc(C(=O)Nc2ccc(Nc3nccc(-c4cccnc4)n3)cc2)c1
77

---

# experimental_system: MKNK2 (human) (UniProt Q9HBH9)
# Sequence (Q9HBH9 whole entry, looked up): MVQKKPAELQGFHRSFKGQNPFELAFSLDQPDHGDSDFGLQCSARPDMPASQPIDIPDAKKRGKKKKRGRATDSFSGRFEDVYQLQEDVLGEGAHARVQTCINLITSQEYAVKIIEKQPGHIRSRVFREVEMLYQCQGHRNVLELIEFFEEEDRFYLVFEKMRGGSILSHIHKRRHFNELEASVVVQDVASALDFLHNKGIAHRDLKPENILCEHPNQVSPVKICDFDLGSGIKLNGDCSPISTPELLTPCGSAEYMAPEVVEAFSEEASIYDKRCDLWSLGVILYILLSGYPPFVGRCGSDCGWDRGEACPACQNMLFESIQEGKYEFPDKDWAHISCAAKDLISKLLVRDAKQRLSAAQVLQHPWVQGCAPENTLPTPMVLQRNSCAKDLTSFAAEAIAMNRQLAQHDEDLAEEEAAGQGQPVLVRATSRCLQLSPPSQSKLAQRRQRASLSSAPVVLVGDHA
# experiment_description: KINOMEscan competition binding
# recorded_conditions: compound 1.0 µM
attribute_measured: kinase still bound, per cent of control (%)

1. CN(C)C/C=C/C(=O)Nc1cccc(C(=O)Nc2ccc(Nc3nccc(/C(C#N)=C4\Nc5ccccc5S4)n3)cc2)c1
68
2. CN(C)C/C=C/C(=O)Nc1cccc(C(=O)Nc2ccc(Nc3nccc(-c4c(-c5ccccc5)nn5ccccc45)n3)cc2)c1
100
3. CN(C)C/C=C/C(=O)Nc1cccc(C(=O)Nc2ccc(Nc3nccc(-c4cccnc4)n3)cc2)c1
13
4. Cc1cc(NC(=O)c2cccc(NC(=O)/C=C/CN(C)C)c2)ccc1Nc1nccc(-c2cccnc2)n1
6.8

---

# experimental_system: EPHA7 (human)
# experiment_description: KINOMEscan competition binding
# recorded_conditions: compound 1.0 µM
attribute_measured: kinase still bound, per cent of control (%)

1. Cc1cc(NC(=O)c2cccc(NC(=O)/C=C/CN(C)C)c2)ccc1Nc1nccc(-c2cccnc2)n1
100
2. CN(C)C/C=C/C(=O)Nc1cccc(C(=O)Nc2ccc(Nc3nccc(-c4c(-c5ccccc5)nn5ccccc45)n3)cc2)c1
100
3. CN(C)C/C=C/C(=O)Nc1cccc(C(=O)Nc2ccc(Nc3nccc(/C(C#N)=C4\Nc5ccccc5S4)n3)cc2)c1
100
4. CN(C)C/C=C/C(=O)Nc1cccc(C(=O)Nc2ccc(Nc3nccc(-c4cccnc4)n3)cc2)c1
86

---

# Lookup of reported kinase still bound, per cent of control keyed by entry
# experimental_system: SRPK1 (human)
# experiment_description: KINOMEscan competition binding
# recorded_conditions: compound 1.0 µM
attribute_measured: kinase still bound, per cent of control (%)

1) CN(C)C/C=C/C(=O)Nc1cccc(C(=O)Nc2ccc(Nc3nccc(-c4c(-c5ccccc5)nn5ccccc45)n3)cc2)c1
90
2) CN(C)C/C=C/C(=O)Nc1cccc(C(=O)Nc2ccc(Nc3nccc(/C(C#N)=C4\Nc5ccccc5S4)n3)cc2)c1
91
3) CN(C)C/C=C/C(=O)Nc1cccc(C(=O)Nc2ccc(Nc3nccc(-c4cccnc4)n3)cc2)c1
50
4) Cc1cc(NC(=O)c2cccc(NC(=O)/C=C/CN(C)C)c2)ccc1Nc1nccc(-c2cccnc2)n1
99

---

# experimental_system: ERBB4 (human) (UniProt Q15303)
# Sequence (Q15303 whole entry, looked up): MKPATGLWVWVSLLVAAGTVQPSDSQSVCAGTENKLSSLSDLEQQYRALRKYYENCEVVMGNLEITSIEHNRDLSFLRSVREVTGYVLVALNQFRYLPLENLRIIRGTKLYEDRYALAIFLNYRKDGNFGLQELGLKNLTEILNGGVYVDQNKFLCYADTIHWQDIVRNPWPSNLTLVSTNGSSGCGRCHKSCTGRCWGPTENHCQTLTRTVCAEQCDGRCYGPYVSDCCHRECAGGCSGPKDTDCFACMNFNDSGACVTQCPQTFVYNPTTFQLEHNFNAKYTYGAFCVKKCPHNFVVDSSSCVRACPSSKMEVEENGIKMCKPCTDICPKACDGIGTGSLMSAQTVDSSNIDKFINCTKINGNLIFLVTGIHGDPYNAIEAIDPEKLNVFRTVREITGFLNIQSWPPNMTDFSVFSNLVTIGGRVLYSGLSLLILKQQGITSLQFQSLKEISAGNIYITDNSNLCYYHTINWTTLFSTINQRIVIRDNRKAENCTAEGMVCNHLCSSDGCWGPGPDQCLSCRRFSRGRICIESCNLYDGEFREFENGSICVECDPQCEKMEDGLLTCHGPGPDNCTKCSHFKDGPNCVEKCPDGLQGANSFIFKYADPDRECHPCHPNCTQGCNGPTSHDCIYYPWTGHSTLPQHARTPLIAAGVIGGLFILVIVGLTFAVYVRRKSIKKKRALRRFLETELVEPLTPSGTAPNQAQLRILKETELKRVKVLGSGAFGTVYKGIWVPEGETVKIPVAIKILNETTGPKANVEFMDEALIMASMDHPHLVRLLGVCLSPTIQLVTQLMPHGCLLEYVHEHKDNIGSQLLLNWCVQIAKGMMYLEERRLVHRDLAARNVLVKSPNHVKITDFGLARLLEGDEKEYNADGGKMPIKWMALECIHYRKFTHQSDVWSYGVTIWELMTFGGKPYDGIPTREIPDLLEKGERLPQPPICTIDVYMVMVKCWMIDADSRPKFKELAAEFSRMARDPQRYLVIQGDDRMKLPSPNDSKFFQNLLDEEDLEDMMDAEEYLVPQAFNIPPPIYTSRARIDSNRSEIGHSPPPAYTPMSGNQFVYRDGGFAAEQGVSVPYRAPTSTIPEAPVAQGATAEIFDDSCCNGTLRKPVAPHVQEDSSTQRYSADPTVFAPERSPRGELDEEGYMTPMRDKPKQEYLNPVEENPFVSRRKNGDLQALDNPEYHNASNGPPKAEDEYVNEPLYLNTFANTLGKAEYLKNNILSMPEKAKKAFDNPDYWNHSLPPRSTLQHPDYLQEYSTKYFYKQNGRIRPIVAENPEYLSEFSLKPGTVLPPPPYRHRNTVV
pIC50: −log10 of the molar value.
attribute_measured: pIC50

1) CN(C)C/C=C/C(=O)Nc1cccc(C(=O)Nc2ccc(Nc3nccc(-c4c(-c5ccccc5)nn5ccccc45)n3)cc2)c1
7.54

---

# experimental_system: CDK15 (human)
# experiment_description: KINOMEscan competition binding
# recorded_conditions: compound 1.0 µM
attribute_measured: kinase still bound, per cent of control (%)

1) Cc1cc(NC(=O)c2cccc(NC(=O)/C=C/CN(C)C)c2)ccc1Nc1nccc(-c2cccnc2)n1
100
2) CN(C)C/C=C/C(=O)Nc1cccc(C(=O)Nc2ccc(Nc3nccc(-c4c(-c5ccccc5)nn5ccccc45)n3)cc2)c1
100
3) CN(C)C/C=C/C(=O)Nc1cccc(C(=O)Nc2ccc(Nc3nccc(-c4cccnc4)n3)cc2)c1
96
4) CN(C)C/C=C/C(=O)Nc1cccc(C(=O)Nc2ccc(Nc3nccc(/C(C#N)=C4\Nc5ccccc5S4)n3)cc2)c1
100

---

# experimental_system: ROCK1 (human)
# experiment_description: KINOMEscan competition binding
# recorded_conditions: compound 1.0 µM
attribute_measured: kinase still bound, per cent of control (%)

1) Cc1cc(NC(=O)c2cccc(NC(=O)/C=C/CN(C)C)c2)ccc1Nc1nccc(-c2cccnc2)n1
63
2) CN(C)C/C=C/C(=O)Nc1cccc(C(=O)Nc2ccc(Nc3nccc(-c4cccnc4)n3)cc2)c1
22
3) CN(C)C/C=C/C(=O)Nc1cccc(C(=O)Nc2ccc(Nc3nccc(-c4c(-c5ccccc5)nn5ccccc45)n3)cc2)c1
59
4) CN(C)C/C=C/C(=O)Nc1cccc(C(=O)Nc2ccc(Nc3nccc(/C(C#N)=C4\Nc5ccccc5S4)n3)cc2)c1
100

---

# experimental_system: MAPKAPK5 (human) (UniProt Q8IW41)
# Sequence (Q8IW41 whole entry, looked up): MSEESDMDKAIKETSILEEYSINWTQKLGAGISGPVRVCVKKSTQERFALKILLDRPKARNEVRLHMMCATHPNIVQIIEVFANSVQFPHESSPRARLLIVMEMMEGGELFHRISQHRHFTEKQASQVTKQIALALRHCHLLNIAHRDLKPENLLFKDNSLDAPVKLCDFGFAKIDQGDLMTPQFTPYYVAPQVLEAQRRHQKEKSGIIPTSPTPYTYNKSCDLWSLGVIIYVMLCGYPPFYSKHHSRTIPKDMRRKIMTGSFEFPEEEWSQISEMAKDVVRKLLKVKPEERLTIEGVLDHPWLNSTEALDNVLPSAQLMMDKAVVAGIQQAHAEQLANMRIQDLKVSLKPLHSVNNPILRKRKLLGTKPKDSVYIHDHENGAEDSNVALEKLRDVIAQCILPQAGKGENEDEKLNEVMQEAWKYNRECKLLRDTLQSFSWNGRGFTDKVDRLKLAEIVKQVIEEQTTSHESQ
# experiment_description: KINOMEscan competition binding
# recorded_conditions: compound 1.0 µM
# Lookup of reported kinase still bound, per cent of control keyed by entry
attribute_measured: kinase still bound, per cent of control (%)

1. CN(C)C/C=C/C(=O)Nc1cccc(C(=O)Nc2ccc(Nc3nccc(/C(C#N)=C4\Nc5ccccc5S4)n3)cc2)c1
100
2. CN(C)C/C=C/C(=O)Nc1cccc(C(=O)Nc2ccc(Nc3nccc(-c4c(-c5ccccc5)nn5ccccc45)n3)cc2)c1
100
3. Cc1cc(NC(=O)c2cccc(NC(=O)/C=C/CN(C)C)c2)ccc1Nc1nccc(-c2cccnc2)n1
74
4. CN(C)C/C=C/C(=O)Nc1cccc(C(=O)Nc2ccc(Nc3nccc(-c4cccnc4)n3)cc2)c1
68

---

# experimental_system: ACVRL1 (human) (UniProt P37023)
# Sequence (P37023 whole entry, looked up): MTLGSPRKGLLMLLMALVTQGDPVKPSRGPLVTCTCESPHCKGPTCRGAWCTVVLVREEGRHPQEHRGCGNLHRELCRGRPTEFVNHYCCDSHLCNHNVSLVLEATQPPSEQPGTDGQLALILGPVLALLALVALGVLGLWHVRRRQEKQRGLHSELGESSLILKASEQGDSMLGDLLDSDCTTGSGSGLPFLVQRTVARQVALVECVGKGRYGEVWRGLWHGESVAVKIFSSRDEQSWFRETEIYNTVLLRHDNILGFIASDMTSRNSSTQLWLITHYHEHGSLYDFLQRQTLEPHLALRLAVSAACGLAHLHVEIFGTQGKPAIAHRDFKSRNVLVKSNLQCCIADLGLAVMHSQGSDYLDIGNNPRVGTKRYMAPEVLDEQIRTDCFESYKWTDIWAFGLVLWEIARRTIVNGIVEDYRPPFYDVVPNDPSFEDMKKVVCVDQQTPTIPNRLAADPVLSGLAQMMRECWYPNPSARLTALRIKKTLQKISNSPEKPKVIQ
# experiment_description: KINOMEscan competition binding
# recorded_conditions: compound 1.0 µM
# Lookup of reported kinase still bound, per cent of control keyed by entry
attribute_measured: kinase still bound, per cent of control (%)

1) CN(C)C/C=C/C(=O)Nc1cccc(C(=O)Nc2ccc(Nc3nccc(-c4c(-c5ccccc5)nn5ccccc45)n3)cc2)c1
22
2) CN(C)C/C=C/C(=O)Nc1cccc(C(=O)Nc2ccc(Nc3nccc(/C(C#N)=C4\Nc5ccccc5S4)n3)cc2)c1
100
3) CN(C)C/C=C/C(=O)Nc1cccc(C(=O)Nc2ccc(Nc3nccc(-c4cccnc4)n3)cc2)c1
100
4) Cc1cc(NC(=O)c2cccc(NC(=O)/C=C/CN(C)C)c2)ccc1Nc1nccc(-c2cccnc2)n1
96

---

# experimental_system: NIM1 (human)
# experiment_description: KINOMEscan competition binding
# recorded_conditions: compound 1.0 µM
attribute_measured: kinase still bound, per cent of control (%)

1) CN(C)C/C=C/C(=O)Nc1cccc(C(=O)Nc2ccc(Nc3nccc(-c4c(-c5ccccc5)nn5ccccc45)n3)cc2)c1
100
2) CN(C)C/C=C/C(=O)Nc1cccc(C(=O)Nc2ccc(Nc3nccc(/C(C#N)=C4\Nc5ccccc5S4)n3)cc2)c1
86
3) Cc1cc(NC(=O)c2cccc(NC(=O)/C=C/CN(C)C)c2)ccc1Nc1nccc(-c2cccnc2)n1
100
4) CN(C)C/C=C/C(=O)Nc1cccc(C(=O)Nc2ccc(Nc3nccc(-c4cccnc4)n3)cc2)c1
100

---

# experimental_system: TNK2 (human)
# experiment_description: KINOMEscan competition binding
# recorded_conditions: compound 1.0 µM
attribute_measured: kinase still bound, per cent of control (%)

1. CN(C)C/C=C/C(=O)Nc1cccc(C(=O)Nc2ccc(Nc3nccc(-c4cccnc4)n3)cc2)c1
100
2. Cc1cc(NC(=O)c2cccc(NC(=O)/C=C/CN(C)C)c2)ccc1Nc1nccc(-c2cccnc2)n1
90
3. CN(C)C/C=C/C(=O)Nc1cccc(C(=O)Nc2ccc(Nc3nccc(/C(C#N)=C4\Nc5ccccc5S4)n3)cc2)c1
70
4. CN(C)C/C=C/C(=O)Nc1cccc(C(=O)Nc2ccc(Nc3nccc(-c4c(-c5ccccc5)nn5ccccc45)n3)cc2)c1
100

---

# experimental_system: PTK2B (human)
# experiment_description: KINOMEscan competition binding
# recorded_conditions: compound 1.0 µM
attribute_measured: kinase still bound, per cent of control (%)

1) CN(C)C/C=C/C(=O)Nc1cccc(C(=O)Nc2ccc(Nc3nccc(/C(C#N)=C4\Nc5ccccc5S4)n3)cc2)c1
100
2) Cc1cc(NC(=O)c2cccc(NC(=O)/C=C/CN(C)C)c2)ccc1Nc1nccc(-c2cccnc2)n1
87
3) CN(C)C/C=C/C(=O)Nc1cccc(C(=O)Nc2ccc(Nc3nccc(-c4c(-c5ccccc5)nn5ccccc45)n3)cc2)c1
85
4) CN(C)C/C=C/C(=O)Nc1cccc(C(=O)Nc2ccc(Nc3nccc(-c4cccnc4)n3)cc2)c1
100

---

# Lookup of reported kinase still bound, per cent of control keyed by entry
# experimental_system: UniProt:Q13705
# Sequence (Q13705 whole entry, looked up): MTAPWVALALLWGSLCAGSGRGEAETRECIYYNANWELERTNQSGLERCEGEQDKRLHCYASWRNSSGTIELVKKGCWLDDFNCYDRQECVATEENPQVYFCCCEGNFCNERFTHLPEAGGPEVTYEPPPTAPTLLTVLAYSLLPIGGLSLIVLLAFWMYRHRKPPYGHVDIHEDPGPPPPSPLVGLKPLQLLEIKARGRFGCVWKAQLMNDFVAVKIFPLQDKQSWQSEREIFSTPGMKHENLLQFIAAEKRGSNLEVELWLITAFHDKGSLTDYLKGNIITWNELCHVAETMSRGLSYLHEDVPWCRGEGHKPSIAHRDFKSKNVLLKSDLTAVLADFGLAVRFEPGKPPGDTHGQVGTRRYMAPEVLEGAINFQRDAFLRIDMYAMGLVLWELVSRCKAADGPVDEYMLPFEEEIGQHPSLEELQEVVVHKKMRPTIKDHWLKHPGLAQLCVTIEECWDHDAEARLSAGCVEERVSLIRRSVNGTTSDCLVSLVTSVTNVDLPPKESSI
# experiment_description: KINOMEscan competition binding
# recorded_conditions: compound 1.0 µM
attribute_measured: kinase still bound, per cent of control

1. CN(C)C/C=C/C(=O)Nc1cccc(C(=O)Nc2ccc(Nc3nccc(-c4cccnc4)n3)cc2)c1
56%
2. CN(C)C/C=C/C(=O)Nc1cccc(C(=O)Nc2ccc(Nc3nccc(/C(C#N)=C4\Nc5ccccc5S4)n3)cc2)c1
100%
3. CN(C)C/C=C/C(=O)Nc1cccc(C(=O)Nc2ccc(Nc3nccc(-c4c(-c5ccccc5)nn5ccccc45)n3)cc2)c1
9.6%
4. Cc1cc(NC(=O)c2cccc(NC(=O)/C=C/CN(C)C)c2)ccc1Nc1nccc(-c2cccnc2)n1
100%
